Where do these numbers come from? They come from patent US20100280227A1.

Assayed Target: T1, human BR3 extracellular domain (human, UniProt Q96RJ3 1-61)
T1 construct: biotinylated where used as tracer; also called hBR3-ECD; BR3-ECD
Method Summary: phage competition ELISA
Readout Name: IC50 (nM)
Response body: numeric value in nM, unit text excluded.

Return the recorded IC50 value; entry: 34 (Fab, V domains shown, also called V3-34) VH: EVQLVESGGGLVQPGGSLRLSCAASGFSISNHSIHWVRQAPGKGLEWVAWVTPSYGITDYADSVKGRFTISADTSKNTAYLQMNSLRAEDTAVYYCARRVCYNRLGVCAGGMDYWGQGTLVTVSS VL: DIQMTQSPSSLSASVGDRVTITCRASQDVSTAVAWYQQKPGKAPKLLIYSASFLYSGVPSRFSGSGSGTDFTLTISSLQPEDFATYYCQQSRTTPPTFGQGTKVEIKR 0.3

Return the recorded IC50 value; entry: 5 (Fab, V domains shown, also called V3-5) VH: EVQLVESGGGLVQPGGSLRLSCAASGFTISSSSIHWVRQAPGKGLEWVAWITPGHGSTDYADSVKGRFTISADTSKNTAYLQMNSLRAEDTAVYYCARRVCYNRLGVCAGGMDYWGQGTLVTVSS VL: DIQMTQSPSSLSASVGDRVTITCRASQDVSTAVAWYQQKPGKAPKLLIYSASFLYSGVPSRFSGSGSGTDFTLTISSLQPEDFATYYCQQSRITPPTFGQGTKVEIKR 2.5

Return the recorded IC50 value; entry: 37 (Fab, V domains shown, also called V3-37) VH: EVQLVESGGGLVQPGGSLRLSCAASGFSISRRSIHWVRQAPGKGLEWVAWITPLYGSTHYADSVKGRFTISADTSKNTAYLQMNSLRAEDTAVYYCARRVCYNRLGVCAGGMDYWGQGTLVTVSS VL: DIQMTQSPSSLSASVGDRVTITCRASQDVSTAVAWYQQKPGKAPKLLIYSASFLYSGVPSRFSGSGSGTDFTLTISSLQPEDFATYYCQQSRISPPTFGQGTKVEIKR 0.7

Return the recorded IC50 value; entry: 35 (Fab, V domains shown, also called V3-35) VH: EVQLVESGGGLVQPGGSLRLSCAASGFTISSNSIHWVRQAPGKGLEWVAWVTPGVGSTDYADSVKGRFTISADTSKNTAYLQMNSLRAEDTAVYYCARRVCYNRLGVCAGGMDYWGQGTLVTVSS VL: DIQMTQSPSSLSASVGDRVTITCRASQDVSTAVAWYQQKPGKAPKLLIYSASFLYSGVPSRFSGSGSGTDFTLTISSLQPEDFATYYCQQSLMTPPTFGQGTKVEIKR 0.8

Return the recorded IC50 value; entry: 19 (Fab, V domains shown, also called V3-19) VH: EVQLVESGGGLVQPGGSLRLSCAASGFSIARSSIHWVRQAPGKGLEWVAWILPSAGSTDYADSVKGRFTISADTSKNTAYLQMNSLRAEDTAVYYCARRVCYNRLGVCAGGMDYWGQGTLVTVSS VL: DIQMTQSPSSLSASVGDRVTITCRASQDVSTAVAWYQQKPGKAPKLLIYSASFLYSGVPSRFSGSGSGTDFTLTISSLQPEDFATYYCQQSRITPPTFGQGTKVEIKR 1.3

Return the recorded IC50 value; entry: 41 (Fab, V domains shown, also called V3-41; clone 41) VH: EVQLVESGGGLVQPGGSLRLSCAASGFSIRNNSIHWVRQAPGKGLEWVAWVLPSNGVTDYADSVKGRFTISADTSKNTAYLQMNSLRAEDTAVYYCARRVCYNRLGVCAGGMDYWGQGTLVTVSS VL: DIQMTQSPSSLSASVGDRVTITCRASQDVSTAVAWYQQKPGKAPKLLIYSASFLYSGVPSRFSGSGSGTDFTLTISSLQPEDFATYYCQQSGISPPTFGQGTKVEIKR 0.4

Return the recorded IC50 value; entry: 3 (Fab, V domains shown, also called V3-3) VH: EVQLVESGGGLVQPGGSLRLSCAASGFTISSNSIHWVRQAPGKGLEWVAWVTPSGGSTDYADSVKGRFTISADTSKNTAYLQMNSLRAEDTAVYYCARRVCYNRLGVCAGGMDYWGQGTLVTVSS VL: DIQMTQSPSSLSASVGDRVTITCRASQDVSTAVAWYQQKPGKAPKLLIYSASFLYSGVPSRFSGSGSGTDFTLTISSLQPEDFATYYCQQSRISPPTFGQGTKVEIKR 1.3

Return the recorded IC50 value; entry: V3-1 Fab (Fab, V domains shown, soluble Fab in SPR) VH: EVQLVESGGGLVQPGGSLRLSCAASGFTISSNSIHWVRQAPGKGLEWVAWITPSDGNTDYADSVKGRFTISADTSKNTAYLQMNSLRAEDTAVYYCARRVCYNRLGVCAGGMDYWGQGTLVTVSS VL: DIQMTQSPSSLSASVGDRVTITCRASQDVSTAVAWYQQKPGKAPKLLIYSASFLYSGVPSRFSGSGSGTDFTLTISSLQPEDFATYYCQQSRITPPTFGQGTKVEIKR 9.4
